target.entity: T1, Duck egg lysozyme (DEL), D65N + N103D double mutant of the DEL-II isoform (Anas platyrhynchos, DEL-II double mutant, strain)
T1 construct: duck egg lysozyme, DEL-II isoform, D65N + N103D double mutant; differs from HEL3X at 25 amino acids; source: Pichia pastoris, secreted, purified from culture supernatant (ion exchange)
T1 chain: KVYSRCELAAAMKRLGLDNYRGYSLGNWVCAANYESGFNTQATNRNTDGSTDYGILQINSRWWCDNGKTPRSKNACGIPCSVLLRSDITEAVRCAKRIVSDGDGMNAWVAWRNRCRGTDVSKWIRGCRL
assay: BLI; BLItz (ForteBio); biotinylated Hy10 Fab variant immobilised on streptavidin biosensors (rehydrated in PBS with 0.1% wt/vol BSA); soluble monomeric lysozyme antigen as analyte at a range of concentrations; global fit, 1:1 Fab-lysozyme interaction
condition.context: both partners purified
Below, each entry is listed alongside its reported pKd.
When answering, recall that pKd equals minus log10 of the concentration in mol/L, and write that number alone.

Guide cases for pKd, answers given:
{"columns": ["binder", "observed.value"],
 "data": [
  ["Hy10 Fab Y33H (Fab, V domains shown, as the heavy chain of Dm5 with the stated changes; as the light chain of Dm5; also called Hy10-Y33H; source: Expi293, transient (pCEP4), purified (Talon resin, gel filtration)) VH: DVQLQESGPSLVKPSQTLSLTCSVTGDSITSDHWSWIRKFPGNRLEYMGYVSYSGSTYYNPSLKSRISITRDTSKNQYYLDLNSVTTEDTATYYCANWDGDYWGQGTLVTVSA VL: DIVLTQSPATLSVTPGNSVSLSCRASQSIGNNLHWYQQKSHESPRLLIKYASQSISGIPSRFSGSGSGTDFTLSINSVETEDFGMYFCQQSNSWPYTFGGGTKLEIK", 6.23],
  ["Hy10 Fab L4F/Y33H (Fab, V domains shown, as the heavy chain of Dm5 with the stated changes; as the light chain of Dm5; source: Expi293, transient (pCEP4), purified (Talon resin, gel filtration)) VH: DVQFQESGPSLVKPSQTLSLTCSVTGDSITSDHWSWIRKFPGNRLEYMGYVSYSGSTYYNPSLKSRISITRDTSKNQYYLDLNSVTTEDTATYYCANWDGDYWGQGTLVTVSA VL: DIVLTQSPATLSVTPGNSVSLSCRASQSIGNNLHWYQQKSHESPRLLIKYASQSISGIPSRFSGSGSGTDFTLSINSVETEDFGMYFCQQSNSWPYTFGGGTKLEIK", 6.76],
  ["Hy10 Fab S52T/Y58F (Fab, V domains shown, as the heavy chain of Dm5 with the stated changes; as the light chain of Dm5; source: Expi293, transient (pCEP4), purified (Talon resin, gel filtration)) VH: DVQLQESGPSLVKPSQTLSLTCSVTGDSITSDYWSWIRKFPGNRLEYMGYVTYSGSTFYNPSLKSRISITRDTSKNQYYLDLNSVTTEDTATYYCANWDGDYWGQGTLVTVSA VL: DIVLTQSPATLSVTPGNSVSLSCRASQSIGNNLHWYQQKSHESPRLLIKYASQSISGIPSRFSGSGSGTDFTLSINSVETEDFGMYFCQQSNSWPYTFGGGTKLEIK", 8.58],
  ["Hy10 Fab S52T/Y53F (Fab, V domains shown, as the heavy chain of Dm5 with the stated changes; as the light chain of Dm5; source: Expi293, transient (pCEP4), purified (Talon resin, gel filtration)) VH: DVQLQESGPSLVKPSQTLSLTCSVTGDSITSDYWSWIRKFPGNRLEYMGYVTFSGSTYYNPSLKSRISITRDTSKNQYYLDLNSVTTEDTATYYCANWDGDYWGQGTLVTVSA VL: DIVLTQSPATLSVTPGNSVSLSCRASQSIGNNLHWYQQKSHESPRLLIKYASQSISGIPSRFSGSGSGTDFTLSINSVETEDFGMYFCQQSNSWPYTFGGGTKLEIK", 8.45]
]}

Please examine the following record next.
### Prompt Given HyHEL10 (Hy10) Fab, WT founder (Fab, V domains shown, heavy chain of Hy10 Fab; light chain of Hy10 Fab; also called Hy10WT; source: Expi293, transient (pCEP4), purified (Talon resin, gel filtration)) VH: DVQLQESGPSLVKPSQTLSLTCSVTGDSITSDYWSWIRKFPGNRLEYMGYVSYSGSTYYNPSLKSRISITRDTSKNQYYLDLNSVTTEDTATYYCANWDGDYWGQGTLVTVSA VL: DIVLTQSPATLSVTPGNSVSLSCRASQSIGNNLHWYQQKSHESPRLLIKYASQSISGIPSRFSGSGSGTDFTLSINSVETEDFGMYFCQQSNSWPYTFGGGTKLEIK , state its recorded pKd.
### Response 7.40
